- Test system: H1299 (NRAS Q61K mutant type)
- Method: In vitro growth inhibition (GI50), H1299
- Format: cell-based
- Condition: Homo sapiens, NCI-H1299
The reader will find reported GI50 values listed item by item below.

| Compound | Tested Target | GI50 |
| --- | --- | --- |
| CC(C)(C)c1cc(NC(=O)Nc2ccc(-n3cnc4ccccc43)cc2)[nH]n1 [Compound 68] | H1299 (NRAS Q61K mutant type) | > 2.5 µM |
| CC(C)(C)c1cc(NC(=O)Nc2ccc(-n3cnc4cc(OCCN5CCOCC5)ccc43)cc2)no1 [Compound 16] | H1299 (NRAS Q61K mutant type) | > 2.5 µM |
| CC(C)(C)c1cc(NC(=O)Nc2ccc(-n3cnc4cc(O)ccc43)cc2)no1 [Compound 4] | H1299 (NRAS Q61K mutant type) | > 2.5 µM |
| COc1ccc2c(c1)ncn2-c1ccc(NC(=O)Nc2cc(C(C)(C)C)n[nH]2)cc1 [Compound 71] | H1299 (NRAS Q61K mutant type) | > 2.5 µM |
| CC(C)(C)c1cc(NC(=O)Nc2ccc(-n3cnc4cc(OCCO)ccc43)cc2)[nH]n1 [Compound 79] | H1299 (NRAS Q61K mutant type) | > 2.5 µM |
| CC(C)(C)c1cc(N)n(C(=O)Nc2ccc(-n3cnc4ccccc43)cc2)n1 [Compound 116] | H1299 (NRAS Q61K mutant type) | > 2.5 µM |
| COCCOc1ccc2c(c1)ncn2-c1ccc(NC(=O)Nc2cc(C(C)(C)C)n[nH]2)cc1 [Compound 77] | H1299 (NRAS Q61K mutant type) | > 2.5 µM |
| CC(C)(C)c1cc(NC(=O)Nc2ccc(-n3cnc4ccc(OCCN5CCOCC5)cc43)cc2)no1 [Compound 27] | H1299 (NRAS Q61K mutant type) | > 2.5 µM |
| CC(C)(C)c1cc(NC(=O)Nc2ccc(-n3cnc4cc(OCCN5CCOCC5)ccc43)cc2)[nH]n1 [Compound 89] | H1299 (NRAS Q61K mutant type) | > 2.5 µM |
| CC(C)(C)c1cc(NC(=O)Nc2ccc(-n3cnc4cc(OCCO)ccc43)cc2)no1 [Compound 11] | H1299 (NRAS Q61K mutant type) | > 2.5 µM |
